Molecular target: human 5-HT3 receptor (Homo sapiens, UniProt P46098)
Construct: purchased BIOLINKS K.K; host or cells: HEK-293 cells (membrane preparation)
Sequence (P46098 24-478): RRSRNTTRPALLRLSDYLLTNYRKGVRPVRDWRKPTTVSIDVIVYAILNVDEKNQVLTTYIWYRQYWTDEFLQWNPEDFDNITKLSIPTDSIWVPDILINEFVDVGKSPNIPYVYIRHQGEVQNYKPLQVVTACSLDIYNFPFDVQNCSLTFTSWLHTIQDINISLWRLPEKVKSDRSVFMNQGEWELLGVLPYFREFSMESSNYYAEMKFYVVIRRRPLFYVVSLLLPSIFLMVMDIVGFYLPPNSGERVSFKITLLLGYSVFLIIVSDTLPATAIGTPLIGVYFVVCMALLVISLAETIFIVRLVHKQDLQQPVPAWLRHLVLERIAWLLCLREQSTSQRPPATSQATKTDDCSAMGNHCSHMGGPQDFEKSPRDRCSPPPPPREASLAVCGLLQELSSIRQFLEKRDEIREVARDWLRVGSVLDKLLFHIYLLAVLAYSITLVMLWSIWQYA
Test: Measurement of affinity to human 5-HT3 receptor (in vitro), [3H]BRL-43694 binding
Conditions: test compound 100 nmols/L; [3H]BRL-43694 0.5 nmols/L; HEK-293 cell membrane expressing human 5-HT3 receptor; read-out: Percent Inhibition (%) on Each Receptor's Binding at 10^−7M, 5-HT3
Method: (2) Measurement of Affinity of Each Test Compound to Human 5-HT3 Receptor (in Vitro): […] Residual radioactivity on the filter was measured with liquid scintillation counter (ALOKA CO., LTD. LSC-5100). Percent inhibition (%) of each test compound to binding of [^3H]BRL-43694 to 5-HT3 receptor at a concentration of 0.5 nmols/L, i.e., affinity of each test compound to 5-HT3 receptor, can be calculated according to the following expression. […]
Record form. Attribute: inhibition at 0.1 µM. Fill in for each entry.

Examples with their reported inhibition at 0.1 µM follow.
>  <molecule>
Cn1c(CCCCN2CCN(c3ccc4ccccc4n3)CC2)nc2cccc(Cl)c2c1=O

>  <inhibition at 0.1 µM>
68.8%

$$$$
>  <molecule>
NNc1cccc2nc(CCCCN3CCN(c4ccc5ccccc5n4)CC3)n(N)c(=O)c12

>  <inhibition at 0.1 µM>
45.1%

$$$$
>  <molecule>
Cc1cc(N2CCN(CCCCc3nc4ccccc4c(=O)n3N)CC2)nc2ccccc12

>  <inhibition at 0.1 µM>
78.6%

$$$$
>  <molecule>
NS(=O)(=O)Oc1ccc2ccnc(N3CCN4CCC[C@H]4C3)c2c1

>  <inhibition at 0.1 µM>
96.9%

$$$$
>  <molecule>
CCn1c(CCCCN2CCN(c3nc4ccccc4s3)CC2)nc2c(c1=O)CCCC2

>  <inhibition at 0.1 µM>
7.1%

$$$$

Below: the item to evaluate.
## Input Which inhibition at 0.1 µM value is on record for c1cc2occc2c(N2CCN3CCCCC3C2)n1 (stereo not drawn) ?
## Output 71.9%
